- System: VP-MCC cell lines (WAGA, MKL-1, MKL-2)
- Assay Summary: qHTS cell viability, VP-MCC cell lines as a group (mean AUC, VP.MCC.avg)
- Assay type: cell-based, human
- Assay Setup: MIPE library, Control AUC minus VP-MCC AUC (therapeutic window), sheet S2E
Counter-ions that a name gives are not always drawn.
Attribute: Control-VP-MCC

Here are 4 compounds together with their reported answers.
Cc1[nH]c(/C=C2\C(=O)Nc3ccccc32)c(C)c1CCC(=O)O [Orantinib] :: 118.721
CC[C@@]1(O)C(=O)OCc2c1cc1n(c2=O)Cc2cc3c(CN(C)C)c(O)ccc3nc2-1 [Topotecan HCl] :: 112.898
CCNC(=O)Nc1ccc2ncc(Nc3ccc(C)cc3)nc2n1 :: 60.3261
CN(C)CC[C@H](CSc1ccccc1)Nc1ccc(S(=O)(=O)NC(=O)c2ccc(N3CCN(Cc4ccccc4-c4ccc(Cl)cc4)CC3)cc2)cc1[N+](=O)[O-] :: 140.507

### Prompt Notebook entry, VP-MCC cell lines (WAGA, MKL-1, MKL-2) assay: Control-VP-MCC of COCC1(CO)C(=O)C2CCN1CC2 (centres unmarked) = ?
### Response 94.289

---

- System: MKL-1 cells (VP-MCC)
- Assay Summary: qHTS cell viability (CellTiter-Glo, 72 h; primary and follow-up small molecule screen)
- Type: cell-based, human
- Assay Setup: MKL1, 72h, Log (M) -5.33646
Attribute: Percent viability

Here are 3 compounds together with their reported answers.
O=C(Nc1cccc(Cl)c1)Nc1ncc(CCNc2ncnc3ccsc23)s1 [SNS-314, reference compound] :: 37.7%
CCn1cc(-c2ccnc3[nH]c(-c4cccc(CN(C)C)c4)cc23)c(-c2ccc(NC(=O)N(C)C)cc2)n1 [GSK-1070916A, reference compound] :: 0.6%
Cc1cc(Nc2cc(N3CCN(C)CC3)nc(Sc3ccc(NC(=O)C4CC4)cc3)n2)[nH]n1 [Tozasertib, reference compound] :: 35.7%

Now turn to the next compound.
### Prompt Notebook entry, MKL-1 cells (VP-MCC) assay: Percent viability of CCS(=O)(=O)c1cccc(-c2cc(C(=O)NC3CCN(C)CC3)c(C)c3[nH]c4ncc(C)cc4c23)c1 [TAK-901, reference compound] = ?
### Response 3.5%

---

- System: MCC13 cells (VN-MCC)
- Assay Summary: qHTS cell viability (CellTiter-Glo, 72 h; primary and follow-up small molecule screen)
- Type: cell-based, human
Attribute: Area under the dose-response curve (AUC) MCC13 Replicate 2

Here are 5 compounds together with their reported answers.
CCCCCCCCC(=O)NCc1ccc(O)c(OC)c1 [Nonivamide] :: 478.1
CN(C)c1ccc(C(=C2C=CC(=[N+](C)C)C=C2)c2ccc(N(C)C)cc2)cc1.[Cl-] [Methylrosaniline chloride] :: 353.3
O[C@H]1[C@H]2[C@H](O)CCCN2C[C@H]1O [Swainsonine] :: 467.6
C[C@H]1CCC/C=C/[C@@H]2C[C@H](OC(=O)CN(C)C)C[C@H]2[C@H](O)/C=C/C(=O)O1 [Breflate] :: 313.0
CCCC[C@@H](C)/C=C(C)/C=C(\C)C(=O)NC1=C[C@@](O)(/C=C/C=C/C=C/C(=O)NC2=C(O)CCC2=O)[C@@H]2O[C@@H]2C1=O [manumycin A] :: 477.8

Now turn to the next compound.
### Prompt If you can, please state the reported Area under the dose-response curve (AUC) MCC13 Replicate 2 value of CS[C@H]1SC[C@H]2C(=O)N(C)[C@@H](C(C)C)C(=O)OC[C@@H](NC(=O)c3cnc4ccccc4n3)C(=O)N[C@@H](C)C(=O)N(C)[C@@H]1C(=O)N(C)[C@@H](C(C)C)C(=O)OC[C@@H](NC(=O)c1cnc3ccccc3n1)C(=O)N[C@@H](C)C(=O)N2C [Echinomycin] .
### Response 265.0

---

- Tested on: VP-MCC cell lines (WAGA, MKL-1, MKL-2)
- Assay Summary: qHTS cell viability, VP-MCC cell lines as a group (mean AUC, VP.MCC.avg)
- Format: cell-based, human
- Assay Setup: NPC library; therapeutic window: Control avg AUC minus VP-MCC avg AUC
Structures can show the parent of a compound that is named as a salt.
Please note: satisfied applies when Control-VP-MCC is 60 or greater, and not satisfied applies otherwise.

Some entries whose results are on file:
OCCN1CCN(CCCN2c3ccccc3Sc3ccc(C(F)(F)F)cc32)CC1 [Fluphenazine] :: not satisfied
CCOC(=O)[C@@](C)(N)Cc1ccc(O)c(O)c1 [Methyldopate hydrochloride] :: not satisfied
Cc1nc2ccccn2c(=O)c1CCN1CCC(C(=O)c2ccc(F)cc2)CC1 [Pirenperone] :: not satisfied
N=C(N)NN=C(/C=C/c1ccc([N+](=O)[O-])o1)/C=C/c1ccc([N+](=O)[O-])o1 [Nitrovin] :: satisfied

### Prompt Check this compound for Control-VP-MCC at or above 60: CCOC(=O)[C@H](CCc1ccccc1)N[C@@H](C)C(=O)N1CCC[C@H]1C(=O)O [Enalapril]
### Response satisfied

### Prompt Check this compound for Control-VP-MCC at or above 60: O=C(CCCN1CCC(O)(c2ccc(Br)cc2)CC1)c1ccc(F)cc1 [Bromperidol]
### Response satisfied

### Prompt Check this compound for Control-VP-MCC at or above 60: CCN(CC)CCNC(=O)c1ccc(NC(C)=O)cc1 [Acecainide hydrochloride]
### Response not satisfied

### Prompt Check this compound for Control-VP-MCC at or above 60: CCCCC1C(=O)N(c2ccccc2)N(c2ccc(O)cc2)C1=O (stereo not shown) [Oxyphenbutazone]
### Response satisfied

### Prompt Check this compound for Control-VP-MCC at or above 60: O=C(CCN1CCC(c2ccccc2)C1)c1ccc2c(c1)OCCO2 (stereo not shown) [Proroxan]
### Response satisfied

### Prompt Check this compound for Control-VP-MCC at or above 60: CCCCOc1ccc(C(=O)CCN2CCCCC2)cc1 [Dyclonine hydrochloride]
### Response not satisfied

---

- Tested on: MKL-2 cells (VP-MCC)
- Assay Summary: qHTS cell viability (CellTiter-Glo, 72 h; primary and follow-up small molecule screen)
- Assay type: cell-based, human
- Assay Setup: MKL2, 72h, Log (M) -9.15343
Observable: Percent viability

Here are 3 compounds together with their reported answers.
CCn1cc(-c2ccnc3[nH]c(-c4cccc(CN(C)C)c4)cc23)c(-c2ccc(NC(=O)N(C)C)cc2)n1 [GSK-1070916A, reference compound] :: 98.0%
O=C(Nc1cccc(Cl)c1)Nc1ncc(CCNc2ncnc3ccsc23)s1 [SNS-314, reference compound] :: 100.0%
Cc1cc(Nc2cc(N3CCN(C)CC3)nc(Sc3ccc(NC(=O)C4CC4)cc3)n2)[nH]n1 [Tozasertib, reference compound] :: 116.9%

### Prompt If you can, please state the reported Percent viability value of CCS(=O)(=O)c1cccc(-c2cc(C(=O)NC3CCN(C)CC3)c(C)c3[nH]c4ncc(C)cc4c23)c1 [TAK-901, reference compound] .
### Response 110.4%

---

Attribute: Percent viability
- System: MCC13 cells (VN-MCC)
- Assay Summary: qHTS cell viability (CellTiter-Glo, 72 h; primary and follow-up small molecule screen)
- Format: cell-based, human
- Assay Setup: MCC13, 72h, Log (M) -6.76782
A complete answer gives the number followed by the unit.

### Prompt If you can, please state the reported Percent viability value of CCn1cc(-c2ccnc3[nH]c(-c4cccc(CN(C)C)c4)cc23)c(-c2ccc(NC(=O)N(C)C)cc2)n1 [GSK-1070916A, reference compound] .
### Response 88.4%

### Prompt If you can, please state the reported Percent viability value of O=C(Nc1cccc(Cl)c1)Nc1ncc(CCNc2ncnc3ccsc23)s1 [SNS-314, reference compound] .
### Response 93.1%

### Prompt If you can, please state the reported Percent viability value of Cc1cc(Nc2cc(N3CCN(C)CC3)nc(Sc3ccc(NC(=O)C4CC4)cc3)n2)[nH]n1 [Tozasertib, reference compound] .
### Response 89.8%

### Prompt If you can, please state the reported Percent viability value of CCS(=O)(=O)c1cccc(-c2cc(C(=O)NC3CCN(C)CC3)c(C)c3[nH]c4ncc(C)cc4c23)c1 [TAK-901, reference compound] .
### Response 99.0%

---

- Tested on: VN-MCC cell lines (MCC13, MCC26, UISO)
- Assay Summary: qHTS cell viability, VN-MCC cell lines as a group (mean AUC, VN.MCC.avg)
- Format: cell-based, human
- Assay Setup: NPC library; mean AUC of VN-MCC cell lines
Where a name gives a salt, the structure may show the parent alone.
Lab note: cut-off is 400. Strictly less in VN-MCC_Avg_AUC is Fulfilled. Exactly 400 or more is Not fulfilled.

CCCCCCC[N+](CC)(CC)CCCCc1ccc(Cl)cc1.Cc1ccc(S(=O)(=O)[O-])cc1 [Clofilium tosylate] :: Not fulfilled
Oc1ccc(O)cc1 [Hydroquinone] :: Not fulfilled
CCN(CC)CCNC(=O)c1ccc(NC(C)=O)cc1 [Acecainide hydrochloride] :: Not fulfilled

### Prompt Regarding COc1c(C)c2c(c(O)c1C/C=C(\C)CCC(=O)OCCN1CCOCC1)C(=O)OC2 [Mycophenolate mofetil] , kindly confirm whether its VN-MCC_Avg_AUC is beneath 400.
### Response Fulfilled
